Where do the numbers come from? From patent US20160037775A1.

Tested on: Spodoptera frugiperda
measurement-protocol: whole plant or invertebrate
Format: in vivo
applied-conditions: Spodoptera frugiperda, 144 h; 4 g/ha; after 6 d; read-out: Kill rate in % after 6 d
attribute-measured: pest or weed control at 4 g/ha (%)
The figure you give is taken to be in %; do not add the unit.

Query string: Please give the measured pest or weed control at 4 g/ha for this compound: COCCOC(=O)C(C#N)(C(=O)c1ccccc1C(F)(F)F)c1ccc(C(C)(C)C)cc1 (stereo not shown)
Result string: 17

Query string: Continue with CCCSP(=O)(OCC)Oc1ccc(Br)cc1Cl (stereo not shown)
Result string: 17

Query string: Continue with Nc1nc(N)nc(NC2CC2)n1
Result string: 0

Query string: Continue with FC(F)(F)c1ccc(OCCCOc2c(Cl)cc(OCC=C(Cl)Cl)cc2Cl)nc1
Result string: 0
